Where these numbers come from: the CheMixHub viscosity set

assay: xn = mol fraction of the nth substance listed; conditions: 313.15 K; 101 kPa; x1 = 0.4

{"columns": ["compound", "viscosity / mPa·s"],
 "data": [
  ["C1COCCN1 + NCCO", 4.57],
  ["Cc1ccccn1 + Brc1ccccc1", 0.785],
  ["CC(C)Br + CCO", 0.5668],
  ["C1COCCN1 + OCCO", 9.34]
]}

----------
test: xn = mol fraction of the nth substance listed; conditions: 303.15 K; 100 kPa; x2 = 0.2
value_type: viscosity (mPa·s)

{"columns": ["compound", "value_type", "unit_of_measurement", "endpoint_result"],
 "data": [
  ["CC(O)CO (centres undefined) + CC#N", "viscosity", "mPa·s", 13.8],
  ["CC(O)CO (centres undefined) + CC(C)=O", "viscosity", "mPa·s", 9.34],
  ["CC(O)CO (centres undefined) + CC(C)CO", "viscosity", "mPa·s", 17.38],
  ["CC(O)CO (centres undefined) + CCCCO", "viscosity", "mPa·s", 15.46]
]}

----------
details: 313.15 K; 101 kPa

{"columns": ["line_notation", "viscosity / mPa·s"],
 "data": [
  ["Cc1ccccn1", 0.628],
  ["CCCCn1cc[n+](C)c1.COP(=O)([O-])OC", 224.9],
  ["CCCCC(=O)[O-].CC[NH+](CC)CCO", 23.48],
  ["C1COCCN1", 1.45],
  ["CC(C)Br", 0.4389],
  ["CCC[N+]1(C)CCCC1.N#C[N-]C#N", 18.6]
]}

----------
The reader will find reported viscosity values listed item by item below.
details: 303.15 K; 101 kPa

{"columns": ["line_notation", "unit_of_measurement", "viscosity"],
 "data": [
  ["CCCCC(=O)[O-].CC[NH+](CC)CCO", "mPa·s", 37.12],
  ["C1COCCN1", "mPa·s", 1.74],
  ["CC(C)Br", "mPa·s", 0.4835],
  ["CCCCn1cc[n+](C)c1.COP(=O)([O-])OC", "mPa·s", 426]
]}

----------
test: xn = mol fraction of the nth substance listed; conditions: 308.15 K; 101 kPa; x1 = 0.1
± gives the uncertainty stated by the source.
The reader will find reported viscosity values listed item by item below.
value_type: viscosity

{"columns": ["compound", "value_type", "endpoint_result"],
 "data": [
  ["CC(O)CO (centres undefined) + O", "viscosity", "1.927 ± 0.018 mPa·s"],
  ["CC(O)CO (centres undefined) + CO", "viscosity", "0.7629 ± 0.02 mPa·s"],
  ["CC(O)CO (centres undefined) + CCO", "viscosity", "1.24 ± 0.033 mPa·s"],
  ["CC(C)Br + CCO", "viscosity", "0.8081 ± 0.041 mPa·s"]
]}

----------
The reader will find reported viscosity values listed item by item below.
settings: 323.15 K; 101 kPa
value_type: viscosity (mPa·s)

{"columns": ["compound", "unit_of_measurement", "endpoint_result"],
 "data": [
  ["C1COCCN1", "mPa·s", 1.21],
  ["CC(O)CO (centres undefined)", "mPa·s", 12.2],
  ["CCCCn1cc[n+](C)c1.COP(=O)([O-])OC", "mPa·s", 129.4],
  ["CCCCC(=O)[O-].CC[NH+](CC)CCO", "mPa·s", 15.68]
]}

----------
conditions: 303.15 K; 100 kPa

{"columns": ["compound", "unit_of_measurement", "viscosity"],
 "data": [
  ["CCCCCCCC[P+](CC)(CC)CC.N#Cc1ccc[n-]1", "mPa·s", 140],
  ["O=C[O-].OCC[NH2+]CCO", "mPa·s", 242],
  ["CC(O)CO (centres undefined)", "mPa·s", 33.06],
  ["O=C1CCCC1", "mPa·s", 0.985]
]}

----------
experiment: xn = mol fraction of the nth substance listed; conditions: 298.15 K; 101 kPa; x1 = 0.5285
The reader will find reported viscosity values listed item by item below.
value_type: viscosity (mPa·s)

{"columns": ["molecule", "unit_of_measurement", "endpoint_result"],
 "data": [
  ["NC1CCCCC1 + CCC(C)O", "mPa·s", 2.25],
  ["NC1CCCCC1 + CCCCO", "mPa·s", 2.481],
  ["NC1CCCCC1 + CC(C)CO", "mPa·s", 2.859],
  ["NC1CCCCC1 + CC(C)(C)O", "mPa·s", 2.749]
]}

----------
test: xn = mol fraction of the nth substance listed; conditions: 313.15 K; 101 kPa; x1 = 0.2
± gives the uncertainty stated by the source.
The reader will find reported viscosity values listed item by item below.
value_type: viscosity

{"columns": ["compound", "endpoint_result"],
 "data": [
  ["Cc1ccccn1 + Brc1ccccc1", "0.833 ± 0.014 mPa·s"],
  ["C1COCCN1 + OCCO", "10.32 ± 0.12 mPa·s"],
  ["C1COCCN1 + NCCO", "6.44 ± 0.07 mPa·s"],
  ["CC(C)Br + CCO", "0.7008 ± 0.036 mPa·s"]
]}

----------
details: 318.15 K; 101 kPa
The reader will find reported viscosity values listed item by item below.

{"columns": ["line_notation", "viscosity [mPa·s]"],
 "data": [
  ["CC(C)Br", 0.4194],
  ["ClC=C(Cl)Cl", 0.45],
  ["CCCCn1cc[n+](C)c1.COP(=O)([O-])OC", 168.9],
  ["O=C1CCCC1", 0.811],
  ["CCCCC(=O)[O-].CC[NH+](CC)CCO", 19.07]
]}

----------
assay: xn = mol fraction of the nth substance listed; conditions: 313.15 K; 101 kPa; x1 = 0.6
The reader will find reported viscosity values listed item by item below.

{"columns": ["molecule", "viscosity (mPa·s)"],
 "data": [
  ["C1COCCN1 + NCCO", 2.94],
  ["CC(C)Br + CCO", 0.4739],
  ["Cc1ccccn1 + Brc1ccccc1", 0.736],
  ["C1COCCN1 + OCCO", 6.02]
]}

----------
assay: xn = mol fraction of the nth substance listed; settings: 298.15 K; 101 kPa; x1 = 0.8706

{"columns": ["compound", "viscosity / mPa·s"],
 "data": [
  ["NC1CCCCC1 + CC(C)(C)O", 2.106],
  ["NC1CCCCC1 + CCC(C)O", 2.002],
  ["NC1CCCCC1 + CC(C)CO", 2.165],
  ["NC1CCCCC1 + CCCCO", 2.062]
]}

----------
assay: xn = mol fraction of the nth substance listed; conditions: 298.15 K; 101 kPa; x1 = 0.4277

{"columns": ["compound", "viscosity [mPa·s]"],
 "data": [
  ["NC1CCCCC1 + CC(C)(C)O", 2.974],
  ["NC1CCCCC1 + CC(C)CO", 2.976],
  ["NC1CCCCC1 + CCCCO", 2.549],
  ["NC1CCCCC1 + CCC(C)O", 2.302]
]}

----------
assay: xn = mol fraction of the nth substance listed; settings: 318.15 K; 101 kPa; x1 = 0.1
The reader will find reported viscosity values listed item by item below.

{"columns": ["compound", "viscosity / mPa·s"],
 "data": [
  ["CC(O)CO (centres undefined) + CO", 0.6278],
  ["CC(O)CO (centres undefined) + O", 1.466],
  ["CC(O)CO (centres undefined) + CCO", 0.9282],
  ["CC(C)Br + CCO", 0.7206]
]}

----------
The reader will find reported viscosity values listed item by item below.
assay: xn = mol fraction of the nth substance listed; settings: 298.15 K; 101 kPa; x1 = 0.3325
± gives the uncertainty stated by the source.

{"columns": ["compound", "viscosity"],
 "data": [
  ["NC1CCCCC1 + CCCCO", "2.574 ± 0.03 mPa·s"],
  ["NC1CCCCC1 + CCC(C)O", "2.369 ± 0.027 mPa·s"],
  ["NC1CCCCC1 + CC(C)(C)O", "3.203 ± 0.037 mPa·s"],
  ["NC1CCCCC1 + CC(C)CO", "3.067 ± 0.035 mPa·s"]
]}

----------
The reader will find reported viscosity values listed item by item below.
details: 293.15 K; 101 kPa

{"columns": ["line_notation", "unit_of_measurement", "viscosity"],
 "data": [
  ["CCCCC(=O)[O-].CC[NH+](CC)CCO", "mPa·s", 62.45],
  ["CCCCn1cc[n+](C)c1.COP(=O)([O-])OC", "mPa·s", 895.4],
  ["Cc1ccccn1", "mPa·s", 0.808],
  ["ClC=C(Cl)Cl", "mPa·s", 0.568]
]}
